Assay: chemical genetic growth profiling, strain panel (AID 1159580);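 also: tested at 20 µM; growth read once vehicle control cultures reached saturation at 30 °C; lower values mean less growth of the strain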
Conditions: S. cerevisiae deletion strains, growth OD, locus YJL129C, strain trk1
In all, about 5,500 compounds went through this assay and about 2,000 (36%) were called active. Inconclusive results (about 18%) are left out. Rule as the data show it: active = normalized growth mostly below about 0.91 (no sharp cut-off); inconclusive = no clear call, values can overlap the other calls; inactive = mostly above about 0.92. The list shows a part of the results.
Outcomes you can answer with include only these: t = active, f = inactive

The examples below pair each entry with its known result.
compound	assigned_class
COP(N)(=O)SC (stereo not drawn)	f
C[C@@H]1O[C@@H](O[C@H]2CC[C@]3(C=O)C4CC[C@]5(C)[C@@H](C6=CC(=O)OC6)CC[C@]5(O)C4CC[C@]3(O)C2)[C@H](O)[C@H](O)[C@H]1O (stereo partly drawn)	f
O=S(=O)(O)O	f
CC1(C)S[C@@H]2C(N3C(=O)[C@@H](c4ccccc4)NC3(C)C)C(=O)N2[C@H]1C(=O)O (stereo partly drawn)	f

Exercise: Identify the outcome logged in this assay for the compound shown: CCC(=O)O[C@]1(C(=O)CCl)[C@@H](C)CC2C3CCC4=CC(=O)C=C[C@]4(C)[C@@]3(F)[C@@H](O)C[C@@]21C (stereo partly drawn)
Key: f

Exercise: Quick one: CC(=O)OC1CC[C@@]2(C)C(CCC3C2CC[C@]2(C)C(C4=CC(=O)OC4)C(OC(C)=O)CC32O)C1 (stereo partly drawn)
Key: f

Exercise: Same read-out for `CC1=CC(=O)C(C(C)C)=CC1=O` ?
Key: t

Exercise: Would you mind doing C[C@H]1O[C@@H](O[C@H]2[C@@H](O)C[C@H](O[C@H]3[C@@H](O)C[C@H](O[C@H]4CC[C@]5(C)C6C[C@@H](O)[C@]7(C)[C@@H](C8=CC(=O)OC8)CC[C@]7(O)C6CC[C@@H]5C4)O[C@@H]3C)O[C@@H]2C)C[C@H](O)[C@@H]1O (stereo partly drawn) as well?
Key: f
